These data points were gathered from ChEMBL document CHEMBL5032513.

- procedure-summary: AUC in CD-1 mouse at 1 mg/kg, iv by HPLC-MS/MS analysis
- Type: ADME, organism-based
- Design: dose 1 mg/kg
- test-settings: in vivo
reported-property: AUC (ng·h/mL)
Write it as a number; the unit ng·h/mL goes unstated.

Lab book: AUC of CCC(=O)N(CC1(N2CCN(CC(C)C)CC2)CCOCC1)c1cccc(C(F)(F)F)n1 noted as 93

* * *

- procedure-summary: AUC(0 to t) in CD-1 mouse at 1 mg/kg, iv by HPLC-MS/MS analysis
- Type: ADME, organism-based
- Design: dose 1 mg/kg
- test-settings: in vivo
reported-property: AUC(0-t) (ng·h/mL)
Report as a plain number; the unit ng·h/mL is understood.

Lab book: AUC(0-t) of CCC(=O)N(CC1(N2CCN(CC(C)C)CC2)CCOCC1)c1cccc(C(F)(F)F)n1 noted as 92
